Please provide measured IC50 for the entries that follow.
target: HLA-DRB1*01:01 (Homo sapiens, UniProt P01903+P01911, A100R/D57E/F55L/F60I/F76Y/I96L/L162R/M171V/P40L/Q125E/R42F/V115G/Y59C); experiment: Competition peptide-binding assay, HLA-DRB1*01:01; settings: competition with 0.02 μM biotinylated HA306–318, plate-bound HLA-DRB1*01:01, increasing peptide concentrations; read-out: IC50 *01:01
Peptide text beside a SMILES is read from it.

Take a look at these entries with their results.
[
  {
    "molecule": "CC[C@H](C)[C@H](NC(=O)[C@@H](N)C(C)C)C(=O)NCC(=O)N[C@@H](CCSC)C(=O)N[C@@H](CC(=O)O)C(=O)N[C@H](C(=O)N[C@@H](C)C(=O)N[C@@H](C)C(=O)N[C@@H](CO)C(=O)N[C@@H](CCC(=O)O)C(=O)N[C@@H](Cc1ccccc1)C(=O)N[C@@H](Cc1ccccc1)C(=O)N[C@@H](CCCNC(=N)N)C(=O)N[C@@H](CO)C(=O)NCC(=O)O)C(C)C [compound 241] (H-VIGMDVAASEFFRSG-OH)",
    "result": "35 µM"
  },
  {
    "molecule": "CC[C@H](C)[C@H](NC(=O)[C@H](Cc1c[nH]cn1)NC(=O)[C@H](CCC(=O)O)NC(=O)[C@@H](NC(=O)[C@H](C)NC(=O)[C@H](CCCCN)NC(=O)[C@H](CO)NC(=O)[C@@H](NC(=O)CNC(=O)[C@H](CCCCN)NC(=O)CNC(=O)[C@H](CCSC)NC(=O)[C@H](Cc1ccc(O)cc1)NC(=O)[C@@H](N)CCCNC(=N)N)C(C)C)C(C)C)C(=O)N[C@@H](CC(N)=O)C(=O)O [compound 56] (H-RYMGKGVSKAVEHIN-OH; N-terminus and C-terminus assumed)",
    "result": "> 50 µM"
  }
]

Moving on to another molecule below.
Consider the molecule CC(C)C[C@H](NC(=O)[C@@H]1CCCN1C(=O)[C@H](CC(N)=O)NC(=O)[C@H](CCCNC(=N)N)NC(=O)[C@H](Cc1ccccc1)NC(=O)[C@H](CC(N)=O)NC(=O)[C@H](CCCNC(=N)N)NC(=O)CNC(=O)[C@H](C)NC(=O)[C@H](Cc1ccccc1)NC(=O)[C@H](CCCCN)NC(=O)[C@H](C)NC(=O)[C@@H](N)CCCCN)C(=O)N[C@@H](C)C(=O)N[C@@H](CCCCN)C(=O)O [peptide 420] (H-KAKFAGRNFRNPLAK-OH) and give its measured IC50.
> 50 µM

Ref: paper PMC5108039
